tested-target: Human recombinant Acetyl-CoA Carboxylase 1 (ACC1) (Homo sapiens, UniProt Q13085)
protocol-description: Assay X: ACC1 inhibition, inorganic phosphate (malachite green)
Type: biochemical
experimental-parameters: Assay X: 37° C., 1.5 h, 5 min pre-incubation
metric: IC50 (µM)

compound: CN(C)CCNC(=O)C1CN(c2cc(C(=O)NC[C@H]3CC[C@H](CNC(=O)OC(C)(C)C)CC3)c3ccccc3n2)C1
IC50 / µM: 4.7

P. CN(C)CCOc1ccc(-c2cc(C(=O)NC[C@H]3CC[C@H](CNC(=O)OC4CCOCC4)CC3)c3ccccc3n2)cn1
Q. CC(=O)NCCOC(=O)NC[C@H]1CC[C@H](CNC(=O)c2cc(-c3ccc(N4CCN(C)CC4)nc3)nc3ccccc23)CC1
R. CC(C)(C)OC(=O)NC[C@H]1CC[C@H](CNC(=O)c2cc(N3CCC(CC(O)CN4CCOCC4)CC3)nc3ccccc23)CC1 (single isomer, unassigned) [Example 208]
// sort entries: IC50, high to low Put the labels in the requested order and write them down.
Q, P, R
(Q: 8.13 µM, P: 4.9 µM, R: 1.1 µM)

a. CN1CCN(c2ccc(-c3cc(C(=O)NC[C@H]4CC[C@H](CNC(=O)OCC5CCCO5)CC4)c4ccccc4n3)cn2)CC1 (stereo partly drawn)
b. Cn1cc(CNc2ccc(-c3cc(C(=O)NC[C@H]4CC[C@H](CNC(=O)OC(C)(C)C)CC4)c4ccccc4n3)cn2)cn1
Which value of IC50 is smaller, the one for a or the one for b ? // return label of chosen record
b

P. CC(C)(C)OC(=O)NC[C@H]1CC[C@H](CNC(=O)c2cc(-c3ccc(NCCC(N)=O)nc3)nc3ccccc23)CC1
Q. CC(C)(C)OC(=O)NC[C@H]1CC[C@H](CNC(=O)c2cc(-c3ccc(N4CCCC(O)C4)nc3)nc3ccccc23)CC1 (relative stereo)
Hi there! Just curious which has the higher IC50 between P and Q . // return label of chosen record
P
(P: 4.4 µM, Q: 0.41 µM)

---

tested-target: Human recombinant Acetyl-CoA Carboxylase 1 (ACC1) (Homo sapiens, UniProt Q13085)
protocol-description: Assay Y: ACC1 inhibition, inorganic phosphate (Malachite Green)
Format: biochemical
experimental-parameters: Assay Y: room temperature, 3 hr, 15 min preincubation
pIC50: −log10 of the molar value.
metric: pIC50

The compound listed as CCOC(=O)CN(C[C@H]1CC[C@H](CNC(=O)OC(C)(C)C)CC1)S(=O)(=O)c1ccc2ccccc2c1 [Example 81] has a reported pIC50 of < 4.70

The compound listed as CC(=O)N1CCN(CCCOc2cc(C(=O)NC[C@H]3CC[C@H](CNC(=O)OC(C)(C)C)CC3)c3ccccc3n2)CC1 [Example 183] has a reported pIC50 of < 4.70

The compound listed as CCN(C[C@H]1CC[C@H](CNC(=O)OC(C)(C)C)CC1)S(=O)(=O)c1ccc(-c2csc(C)n2)s1 [Example 90] has a reported pIC50 of < 4.70

---

tested-target: Human recombinant Acetyl-CoA Carboxylase 1 (ACC1) (Homo sapiens)
protocol-description: Assay Y: ACC1 inhibition, inorganic phosphate (Malachite Green)
Type: biochemical
experimental-parameters: Assay Y: room temperature, 3 hr, 15 min preincubation
metric: IC50 (µM)

# count of solved cases: 3
cpd-smiles: CC(C)(C)OC(=O)NC[C@H]1CC[C@H](CNC(=O)c2cc(-c3ccc(C(N)=O)cc3)nc3ccccc23)CC1
IC50 [µM]: 0.25
--
cpd-smiles: CC(C)(C)OC(=O)NC[C@H]1CC[C@H](CNC(=O)c2cc(-c3cccc(CC(=O)O)c3)nc3ccccc23)CC1
IC50 [µM]: 8.64
--
cpd-smiles: CC(=O)c1ccc(-c2cc(C(=O)NC[C@H]3CC[C@H](CNC(=O)OC(C)(C)C)CC3)c3ccccc3n2)s1
IC50 [µM]: 0.45

I. CC(=O)Nc1nc(C)sc1S(=O)(=O)NC[C@H]1CC[C@H](CNC(=O)OC(C)(C)C)CC1
II. CC(C)(C)OC(=O)NC[C@H]1CC[C@H](CNC(=O)c2cc(-c3ccc(CNS(C)(=O)=O)cc3)nc3ccccc23)CC1
III. CC(C)(C)OC(=O)NC[C@H]1CC[C@H](CNC(=O)c2cc(-c3ccc(Cl)cc3)nc3ccccc23)CC1
Please list these in order of increasing IC50. Thank you! Put the labels in the requested order and write them down.
II, III, I

1. C[C@H](CO)Nc1ccc(-c2cc(C(=O)NC[C@H]3CC[C@H](CNC(=O)OC(C)(C)C)CC3)c3ccccc3n2)cn1
2. CC(=O)Nc1cccc2c(S(=O)(=O)NC[C@H]3CC[C@H](CNC(=O)OC(C)(C)C)CC3)cccc12
3. CN(C)S(=O)(=O)c1ccc(-c2cc(C(=O)NC[C@H]3CC[C@H](CNC(=O)O[C@H]4CCOC4)CC3)c3ccccc3n2)cc1
4. CN1CCN(CCOc2cc(C(=O)NC[C@H]3CC[C@H](CNC(=O)OC(C)(C)C)CC3)c3ccccc3n2)CC1
Please list these in order of increasing IC50. Thank you! Put the labels in the requested order and write them down.
1, 3, 4, 2

---

tested-target: Human recombinant Acetyl-CoA Carboxylase 2 (ACC2) (Homo sapiens, UniProt O00763)
Sequence (O00763 whole entry): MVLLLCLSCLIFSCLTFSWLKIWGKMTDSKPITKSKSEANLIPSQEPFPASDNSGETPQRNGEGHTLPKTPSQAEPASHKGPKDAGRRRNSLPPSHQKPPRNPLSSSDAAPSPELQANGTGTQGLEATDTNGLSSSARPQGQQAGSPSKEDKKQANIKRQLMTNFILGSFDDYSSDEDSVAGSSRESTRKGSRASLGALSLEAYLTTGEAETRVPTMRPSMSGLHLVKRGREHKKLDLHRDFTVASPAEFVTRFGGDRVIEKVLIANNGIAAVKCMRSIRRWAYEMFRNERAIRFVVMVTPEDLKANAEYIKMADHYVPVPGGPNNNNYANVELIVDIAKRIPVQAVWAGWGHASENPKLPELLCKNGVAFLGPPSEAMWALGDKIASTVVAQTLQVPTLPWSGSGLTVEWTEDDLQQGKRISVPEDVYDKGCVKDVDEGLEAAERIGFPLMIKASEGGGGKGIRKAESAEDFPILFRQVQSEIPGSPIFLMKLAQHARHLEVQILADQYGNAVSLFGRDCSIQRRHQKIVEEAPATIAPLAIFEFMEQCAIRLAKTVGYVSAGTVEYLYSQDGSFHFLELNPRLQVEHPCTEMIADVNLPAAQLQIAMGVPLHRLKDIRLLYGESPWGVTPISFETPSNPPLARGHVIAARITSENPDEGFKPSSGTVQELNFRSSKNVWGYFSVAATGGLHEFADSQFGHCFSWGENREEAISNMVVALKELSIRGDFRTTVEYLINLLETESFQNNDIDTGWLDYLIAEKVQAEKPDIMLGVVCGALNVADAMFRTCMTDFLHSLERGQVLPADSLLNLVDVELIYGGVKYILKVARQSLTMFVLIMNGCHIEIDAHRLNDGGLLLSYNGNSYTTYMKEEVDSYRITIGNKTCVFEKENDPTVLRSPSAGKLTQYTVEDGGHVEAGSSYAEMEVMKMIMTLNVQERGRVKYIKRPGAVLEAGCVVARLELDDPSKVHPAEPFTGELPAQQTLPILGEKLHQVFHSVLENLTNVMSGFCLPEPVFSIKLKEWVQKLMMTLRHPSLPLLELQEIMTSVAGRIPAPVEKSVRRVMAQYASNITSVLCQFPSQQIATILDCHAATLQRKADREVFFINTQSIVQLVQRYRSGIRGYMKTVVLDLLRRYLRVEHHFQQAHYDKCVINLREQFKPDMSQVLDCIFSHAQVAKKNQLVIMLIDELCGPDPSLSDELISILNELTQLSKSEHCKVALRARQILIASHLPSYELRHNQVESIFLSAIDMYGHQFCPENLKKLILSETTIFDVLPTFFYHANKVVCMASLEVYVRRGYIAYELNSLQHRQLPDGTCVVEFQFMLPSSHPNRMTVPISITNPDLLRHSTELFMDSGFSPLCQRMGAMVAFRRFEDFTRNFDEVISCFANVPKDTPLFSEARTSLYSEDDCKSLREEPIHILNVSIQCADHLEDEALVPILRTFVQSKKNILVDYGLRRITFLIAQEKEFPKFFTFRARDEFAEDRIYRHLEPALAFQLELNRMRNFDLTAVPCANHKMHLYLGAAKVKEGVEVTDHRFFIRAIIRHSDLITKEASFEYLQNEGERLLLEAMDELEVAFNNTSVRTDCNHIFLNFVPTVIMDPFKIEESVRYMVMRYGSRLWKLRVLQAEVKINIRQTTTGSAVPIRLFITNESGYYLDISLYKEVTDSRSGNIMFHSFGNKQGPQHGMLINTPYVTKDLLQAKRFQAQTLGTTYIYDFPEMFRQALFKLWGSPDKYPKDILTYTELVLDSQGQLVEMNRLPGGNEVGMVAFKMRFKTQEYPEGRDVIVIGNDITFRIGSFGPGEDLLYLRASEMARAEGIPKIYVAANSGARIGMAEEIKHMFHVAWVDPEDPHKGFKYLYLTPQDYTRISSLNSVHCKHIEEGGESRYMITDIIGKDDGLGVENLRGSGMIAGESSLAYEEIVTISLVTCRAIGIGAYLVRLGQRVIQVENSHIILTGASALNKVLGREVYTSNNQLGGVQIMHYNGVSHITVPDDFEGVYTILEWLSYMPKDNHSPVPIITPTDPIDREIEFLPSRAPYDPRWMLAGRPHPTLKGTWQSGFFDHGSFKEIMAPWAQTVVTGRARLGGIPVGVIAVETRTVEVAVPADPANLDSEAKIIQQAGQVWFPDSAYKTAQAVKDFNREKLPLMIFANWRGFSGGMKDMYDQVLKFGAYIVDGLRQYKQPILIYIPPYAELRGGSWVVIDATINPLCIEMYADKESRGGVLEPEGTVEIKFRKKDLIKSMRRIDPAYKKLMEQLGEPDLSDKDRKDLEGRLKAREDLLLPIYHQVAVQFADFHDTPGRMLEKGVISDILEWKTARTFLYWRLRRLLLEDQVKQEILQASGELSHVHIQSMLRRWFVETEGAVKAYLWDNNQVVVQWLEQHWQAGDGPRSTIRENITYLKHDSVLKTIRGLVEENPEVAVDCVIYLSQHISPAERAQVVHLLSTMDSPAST
protocol-description: Assay X: ACC2 inhibition, inorganic phosphate (malachite green)
Type: biochemical
experimental-parameters: Assay X: 37° C., 1.5 h, 5 min pre-incubation
metric: IC50 (nM)

molecule: CC(C)(C)OC(=O)NC[C@H]1CC[C@H](CNC(=O)c2cc(-c3cccnc3)nc(-c3cccc(CN)c3)c2)CC1 [Example 240]
IC50 (nM): 360
--
molecule: CN(C)CCOc1ccc(-c2cc(C(=O)NC[C@H]3CC[C@H](CNC(=O)OC4CCOCC4)CC3)c3ccccc3n2)cn1 [Example 195]
IC50 (nM): 820

I. CC(C)(C)OC(=O)NC[C@H]1CC[C@H](CNC(=O)c2cc(-c3ccc(OC4CCOCC4)nc3)nc3ccccc23)CC1 [Example 175]
II. CN(C)CCn1cc(-c2cc(C(=O)NC[C@H]3CC[C@H](CNC(=O)OC(C)(C)C)CC3)c3ccccc3n2)cn1 [Example 242]
Hi there! Just curious which has the higher IC50 between I and II . // return label of chosen record
I
(I: 500 nM, II: 240 nM)

a. CC(C)(C)OC(=O)NC[C@H]1CC[C@H](CNC(=O)c2cc(Oc3cccnc3)nc3ccccc23)CC1 [Example 215]
b. CN(C)CCOc1ccc(-c2cc(C(=O)NC[C@H]3CC[C@H](CNC(=O)O[C@H]4CCOC4)CC3)c3ccccc3n2)cn1 [Example 196]
Which value of IC50 is smaller, the one for a or the one for b ? // return label of chosen record
a
(a: 490 nM, b: 920 nM)

---

tested-target: Human recombinant Acetyl-CoA Carboxylase 2 (ACC2) (Homo sapiens, UniProt O00763)
protocol-description: Assay Y: ACC2 inhibition, inorganic phosphate (Malachite Green)
Assay type: biochemical
experimental-parameters: Assay Y: room temperature, 3 hr, 15 min preincubation
metric: IC50 (µM)

compound: CC(C)(C)OC(=O)NC[C@H]1CC[C@H](CNS(=O)(=O)c2ccc(-c3ccno3)s2)CC1
reported-result: 2.48

compound: CN1CCN(c2ccc(-c3cc(C(=O)NC[C@H]4CC[C@H](CNC(=O)O[C@H]5CCOC5)CC4)c4ccccc4n3)cn2)CC1
reported-result: 0.18

compound: CC(C)(C)OC(=O)NC[C@H]1CC[C@H](CNS(=O)(=O)c2cc(-c3ccccc3)nc3ccccc23)CC1
reported-result: 0.98

A. CN1CCN(c2ccc(-c3cc(C(=O)N[C@H]4CC[C@H](CNC(=O)OC(C)(C)C)CC4)c4ccccc4n3)cn2)CC1
B. CC(C)(C)OC(=O)NC[C@H]1CC[C@H](CNS(=O)(=O)c2ccc(Cl)c(Cl)c2)CC1
Hi there! Just curious which has the higher IC50 between A and B . // return label of chosen record
B
(B: 3.88 µM, A: 0.38 µM)

---

tested-target: Human recombinant Acetyl-CoA Carboxylase 2 (ACC2) (Homo sapiens, UniProt O00763)
protocol-description: Assay Y: ACC2 inhibition, inorganic phosphate (Malachite Green)
Format: biochemical
experimental-parameters: Assay Y: room temperature, 3 hr, 15 min preincubation
pIC50: −log10 of the molar value.
metric: pIC50

cpd-smiles: CC(=O)NCc1cccc(-c2cc(C(=O)NC[C@H]3CC[C@H](CNC(=O)OC(C)(C)C)CC3)c3ccccc3n2)c1
tested-target: Human recombinant Acetyl-CoA Carboxylase 2 (ACC2) (Homo sapiens, UniProt O00763)
pIC50: 6.96

cpd-smiles: CC(C)(C)OC(=O)NC[C@H]1CC[C@H](CNC(=O)c2cc(-c3cccc(C(=O)O)c3)nc3ccccc23)CC1
tested-target: Human recombinant Acetyl-CoA Carboxylase 2 (ACC2) (Homo sapiens, UniProt O00763)
pIC50: 6.35

cpd-smiles: CC(C)(C)OC(=O)NC[C@H]1CC[C@H](CNC(=O)c2cc(-c3cccc(CNC(N)=O)c3)nc3ccccc23)CC1
tested-target: Human recombinant Acetyl-CoA Carboxylase 2 (ACC2) (Homo sapiens, UniProt O00763)
pIC50: 7.00

cpd-smiles: C[C@@H](CO)Nc1ccc(-c2cc(C(=O)NC[C@H]3CC[C@H](CNC(=O)OC(C)(C)C)CC3)c3ccccc3n2)cn1
tested-target: Human recombinant Acetyl-CoA Carboxylase 2 (ACC2) (Homo sapiens, UniProt O00763)
pIC50: 7.15

cpd-smiles: CC(C)(C)OC(=O)NC[C@H]1CC[C@H](CNC(=O)c2cc(-c3ccc(CN)cc3)ncc2Cl)CC1
tested-target: Human recombinant Acetyl-CoA Carboxylase 2 (ACC2) (Homo sapiens, UniProt O00763)
pIC50: 6.33

1. O=C(NC[C@H]1CC[C@H](CNC(=O)c2cc(-c3ccncc3)nc3ccccc23)CC1)OC1CCCC1
2. CN(C)CCCOc1cc(C(=O)NC[C@H]2CC[C@H](CNC(=O)OC(C)(C)C)CC2)c2ccccc2n1
Hi there! Just curious which has the higher pIC50 between 1 and 2 . // return label of chosen record
1
